Where do these numbers come from? They come from paper PMC10710061.

TGT: SAP05 H58A T60W (purified, for ITC) (Aster Yellows phytoplasma strain Witches Broom (AYWB))
ASSAY TEXT: ITC; SPL5^ZnF from the syringe (250 μM for wild-type SAP05, 200 μM for the SAP05–Rpn10^vWA complex or SAP05 mutants) into 20 μM partner in the cell; 25 °C, 20 mM HEPES pH 7.5, 150 mM NaCl; one-site binding model
OUTCOME MEASURE: Kd (µM)
Please state the figure in µM; there is no need to write the unit.

I have this binder here, ZnF domain of Arabidopsis thaliana SPL5, residues 60 to 127 (domain or fragment) SRLCQVDRCTVNLTEAKQYYRRHRVCEVHAKASAATVAGVRQRFCQQCSRFHELPEFDEAKRSCRRRL , and I need its recorded Kd.
3.6
